Assay: purified protein yield per well (BCA); higher = higher soluble expression
ASSAY_METRIC: purified protein yield per well

{"SEQ_TEXT": "LQMQSLINIGPLQISEINESMGLRNGTDYNGATIYYPINQNNLSSIVLVPGFMNTELTIQNWGPFFASHGIITMTIGTNSLTDTHVQRRDALFDAIISLKQENQRIASPLFGKLDTSSIAVGGFSKGGGGAQLLAKFDPSLKAVVALYPWLENVTASDLEHTVPLIIISGQLDAIAPPFLHADIQYNLTPMTTKKLKYEVAFASHDAISGPYAGNGEVGARVLSWLNTFLVTDSCYCPLLLEQPITSSSYTTNIVCSNLFTNIYESNKSYSKEIIEIRDLYGRKVKFSNSRILIYIYNDGSYEKKITL [TEP016]", "ASSAY_METRIC": "purified protein yield per well", "VALUE": "< 25 µg"}
{"SEQ_TEXT": "ADNPYQRGPDPTPASVGASRGTFATAQVSVPAGNGFGGGVIYYPTDTSQGRFGAVAVVPGYTATWAAEGAWMGPWLASFGFVVIGIDTNSRNDWDTARGTQLLAALDYLTQRSSVRDRVDASRAAVMGHSMGGGGAIYAALQRPSLKTTVGLAPFSASQTLNNMRVPTMLLAGQNDGTTTPASIRNYYGQVPSGVEKAYLELTGAGHGFPTSNNPTMMRNVIPWLKIFVDSDTRYTQFLCPLSNTNGIRSYESTCPLVPSPVPTDPPTSAPPTSTPPTTPPPTTPPPTTPAPGGPCAASYRTVNSWSGGFQGEVTVRAGGAPINGWTVRWTLGGGQSISQVWNGTLSTSGSTATVRNAPYNGSLPASGSTTFGFIANGSPSAPTLTCASP [TEP013]", "ASSAY_METRIC": "purified protein yield per well", "VALUE": "176 µg"}
{"SEQ_TEXT": "EPYASIVIVPGYGMIEASIQDWGPFFASWGIIAMTIGTNNPYDFPEERVEALLDAIETIKQENDRINSPIYEKVDLNSFAVSGWSMGGGGAQLAAVIEPTLKAVIALCPWLDNWVLEPDDLNHSVPTLIFSGQYDVNAPPYLHANIHYNYTPSTTDKLLFEVEYGDHYVANGPDGGSGYVGDRAHEWINNYLLGD [TEP055]", "ASSAY_METRIC": "purified protein yield per well", "VALUE": "< 25 µg"}
